target-desc: ACE (Oryctolagus cuniculus)
Sequence (P12822 34-1310): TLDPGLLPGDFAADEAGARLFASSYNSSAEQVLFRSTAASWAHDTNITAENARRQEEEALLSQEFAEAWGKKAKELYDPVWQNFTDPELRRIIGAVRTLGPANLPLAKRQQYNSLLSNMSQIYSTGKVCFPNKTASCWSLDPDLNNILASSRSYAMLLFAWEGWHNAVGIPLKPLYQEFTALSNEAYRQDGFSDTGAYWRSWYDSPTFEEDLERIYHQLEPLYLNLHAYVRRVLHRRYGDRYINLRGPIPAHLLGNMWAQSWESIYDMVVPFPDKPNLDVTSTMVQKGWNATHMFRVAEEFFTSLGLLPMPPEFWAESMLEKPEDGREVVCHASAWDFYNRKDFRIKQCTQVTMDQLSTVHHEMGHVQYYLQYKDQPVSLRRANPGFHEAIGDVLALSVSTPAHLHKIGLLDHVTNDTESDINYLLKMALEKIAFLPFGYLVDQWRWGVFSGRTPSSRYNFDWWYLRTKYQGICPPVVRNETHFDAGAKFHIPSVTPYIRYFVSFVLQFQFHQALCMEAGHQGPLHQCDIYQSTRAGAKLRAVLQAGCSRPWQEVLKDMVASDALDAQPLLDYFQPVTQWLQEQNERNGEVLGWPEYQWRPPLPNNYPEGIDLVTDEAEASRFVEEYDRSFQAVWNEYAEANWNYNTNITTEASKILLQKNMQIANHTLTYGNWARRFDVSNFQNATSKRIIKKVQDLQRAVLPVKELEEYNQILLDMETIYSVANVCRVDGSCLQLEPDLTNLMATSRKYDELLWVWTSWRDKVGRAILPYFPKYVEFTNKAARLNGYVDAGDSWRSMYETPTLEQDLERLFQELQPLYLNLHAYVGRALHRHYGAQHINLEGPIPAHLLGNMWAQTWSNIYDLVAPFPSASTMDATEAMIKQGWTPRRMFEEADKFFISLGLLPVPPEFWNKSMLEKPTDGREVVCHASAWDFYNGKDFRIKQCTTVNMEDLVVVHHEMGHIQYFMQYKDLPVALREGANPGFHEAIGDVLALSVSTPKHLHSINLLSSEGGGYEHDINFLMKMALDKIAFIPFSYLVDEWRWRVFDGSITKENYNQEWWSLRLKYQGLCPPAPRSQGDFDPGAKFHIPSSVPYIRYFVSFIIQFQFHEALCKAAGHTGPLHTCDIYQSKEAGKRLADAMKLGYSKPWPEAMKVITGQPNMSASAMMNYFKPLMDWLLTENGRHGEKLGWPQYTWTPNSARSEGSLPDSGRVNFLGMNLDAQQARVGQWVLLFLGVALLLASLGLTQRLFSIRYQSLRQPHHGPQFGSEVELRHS
protocol-summary: ACE pre-incubation of milk hydrolysate peptide libraries, stable-isotope dimethyl labeling and LC-MS/MS (D/H ratio)
Assay type: in vitro ADME, rabbit
Design: ACE (EC 3.4.15.1, 1 unit) from rabbit lungs; purchased Sigma Chemical Co. (St. Louis, MO, USA); host or cells: rabbit lungs (tissue-derived enzyme)
condition-set: milk hydrolysate peptide library (<3 kDa); ACE-treated (0.05 mU/μL ACE, borate buffer, 37 °C, 3 h: 1.5 h static + 1.5 h 200 rpm; D-labeled) versus untreated (H-labeled) peptide; intensity ratio in LC-MS; <1 = hydrolysed by ACE
No end group written: not given here.
Rule: D/H Ratio of 0.4 or more gives Fulfilled; anything lower gives Not fulfilled.

> print(dat)
               substance                  target.desc  category.label
1    MFPPQSVL [MFPPQSVL]  ACE (Oryctolagus cuniculus)   Not fulfilled
2      FPQYLQY [FPQYLQY]  ACE (Oryctolagus cuniculus)   Not fulfilled
3    DMPIQAFL [DMPIQAFL]  ACE (Oryctolagus cuniculus)       Fulfilled
4      DMPIQAF [DMPIQAF]  ACE (Oryctolagus cuniculus)       Fulfilled
5  ALNEINQFY [ALNEINQFY]  ACE (Oryctolagus cuniculus)       Fulfilled
6      IPPLTQT [IPPLTQT]  ACE (Oryctolagus cuniculus)       Fulfilled
